- TARGET_ENTITY: FGFR3 (UniProt P22607)
- Sequence (P22607 whole entry, looked up): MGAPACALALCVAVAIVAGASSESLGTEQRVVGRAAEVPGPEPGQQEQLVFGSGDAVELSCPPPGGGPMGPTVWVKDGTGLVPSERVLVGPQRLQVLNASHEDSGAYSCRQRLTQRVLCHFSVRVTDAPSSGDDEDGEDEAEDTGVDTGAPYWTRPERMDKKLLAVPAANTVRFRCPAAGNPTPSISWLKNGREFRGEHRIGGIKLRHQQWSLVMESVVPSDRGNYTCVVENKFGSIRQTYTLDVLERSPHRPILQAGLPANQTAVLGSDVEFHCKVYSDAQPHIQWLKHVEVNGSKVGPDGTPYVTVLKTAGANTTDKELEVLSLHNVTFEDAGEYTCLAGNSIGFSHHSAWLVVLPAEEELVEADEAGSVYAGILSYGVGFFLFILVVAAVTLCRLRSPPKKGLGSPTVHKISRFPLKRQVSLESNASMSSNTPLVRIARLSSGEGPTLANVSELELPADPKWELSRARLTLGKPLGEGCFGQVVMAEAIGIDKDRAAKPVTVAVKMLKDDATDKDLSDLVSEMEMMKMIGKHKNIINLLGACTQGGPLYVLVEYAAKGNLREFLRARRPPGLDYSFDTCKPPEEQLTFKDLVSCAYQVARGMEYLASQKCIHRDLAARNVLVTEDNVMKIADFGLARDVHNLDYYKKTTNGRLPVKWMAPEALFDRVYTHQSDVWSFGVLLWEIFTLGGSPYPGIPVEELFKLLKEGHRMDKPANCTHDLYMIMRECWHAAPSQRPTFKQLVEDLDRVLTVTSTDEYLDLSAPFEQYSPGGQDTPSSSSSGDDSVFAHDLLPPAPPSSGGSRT
- EXPERIMENT_SUMMARY: phosphorylation enrichment, bacterial display (enrichment ratio); higher = better substrate or ligand; peptides without Tyr show the background;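 further: 11-residue human phosphosite peptides and single-mutation variants displayed on the E. coli surface, counted by deep sequencing, each peptide's frequency after selection divided by its frequency in the unselected input library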;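 further: frequency after pTyr selection over input frequency; kinase dosed for 20-30% of maximal phosphorylation in three min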
MEASURE_NAME: phosphorylation enrichment
I'd appreciate a reply containing only the number, no unit.

Use the examples below as a reference point.
> print(dat)
                   ordered.residues  observed
1    RLLRGYDQYAY [HLA-B_Y137_H137Y]     0.508
2       TFHNTYHSQMR [IL1RAPL1_Y615]     0.489
3  KRLFAYKMLMA [TMC2_Y209_Q205R_YF]     0.683

query: Identify phosphorylation enrichment associated with the sequence LEAVSYSSRFA [RNLS_Y190_YF]
result: 0.496

query: Identify phosphorylation enrichment associated with the sequence NFATLYLKIYH [PDE6B_Y219]
result: 0.709

query: Identify phosphorylation enrichment associated with the sequence KKFFSYAWPFF [BRDT_Y291_H288Y_YF]
result: 0.716

query: Identify phosphorylation enrichment associated with the sequence NPIGLYSAETL [LDB3_Y202]
result: 0.498

---

Entries and their measured phosphorylation enrichment follow.
- TARGET_ENTITY: EPHB2 (UniProt P29323)
- Sequence (P29323 whole entry, looked up): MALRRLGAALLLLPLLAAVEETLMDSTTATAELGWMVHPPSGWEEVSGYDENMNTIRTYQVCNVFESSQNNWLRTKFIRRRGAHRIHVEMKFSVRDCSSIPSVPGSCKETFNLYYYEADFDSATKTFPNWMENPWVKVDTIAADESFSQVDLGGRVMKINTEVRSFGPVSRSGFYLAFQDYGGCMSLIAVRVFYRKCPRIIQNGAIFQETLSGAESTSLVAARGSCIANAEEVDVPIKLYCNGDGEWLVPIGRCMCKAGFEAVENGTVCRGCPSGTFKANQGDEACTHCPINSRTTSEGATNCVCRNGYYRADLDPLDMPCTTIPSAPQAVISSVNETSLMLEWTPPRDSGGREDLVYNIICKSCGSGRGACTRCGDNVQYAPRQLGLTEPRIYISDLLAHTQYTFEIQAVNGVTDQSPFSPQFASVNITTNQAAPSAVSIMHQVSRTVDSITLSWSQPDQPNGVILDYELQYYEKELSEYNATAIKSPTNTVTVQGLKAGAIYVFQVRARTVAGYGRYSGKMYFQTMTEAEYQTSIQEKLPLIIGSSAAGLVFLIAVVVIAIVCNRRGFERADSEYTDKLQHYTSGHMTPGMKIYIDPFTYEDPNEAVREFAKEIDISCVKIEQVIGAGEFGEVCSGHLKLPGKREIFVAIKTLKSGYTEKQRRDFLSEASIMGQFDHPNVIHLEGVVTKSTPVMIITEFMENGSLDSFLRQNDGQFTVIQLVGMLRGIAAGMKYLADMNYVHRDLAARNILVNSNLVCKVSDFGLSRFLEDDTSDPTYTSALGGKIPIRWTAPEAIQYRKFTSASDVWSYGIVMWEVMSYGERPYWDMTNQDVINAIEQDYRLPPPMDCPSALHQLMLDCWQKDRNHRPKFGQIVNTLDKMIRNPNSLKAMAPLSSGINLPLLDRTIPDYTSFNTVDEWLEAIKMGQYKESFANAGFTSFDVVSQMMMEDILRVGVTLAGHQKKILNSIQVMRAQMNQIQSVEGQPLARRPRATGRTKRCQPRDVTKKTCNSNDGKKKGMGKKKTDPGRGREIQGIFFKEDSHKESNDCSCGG
- EXPERIMENT_SUMMARY: phosphorylation enrichment, bacterial display (enrichment ratio); higher = better substrate or ligand; peptides without Tyr show the background

Use the examples below as a reference point.
> print(dat)
                   ordered.residues                measure.name  observed
1   TFWKKYCTFWK [CCDC70_Y125_R126C]  phosphorylation enrichment     0.425
2          PRAEWYRDDVL [MYOM2_Y317]  phosphorylation enrichment     0.725
3  AEPNIYQEKLS [USP54_Y1233_D1231N]  phosphorylation enrichment     0.462

Could you now look at the following sequence, please?
query: Identify phosphorylation enrichment associated with the sequence FSCLPYRRLAF [SLC52A2_Y305_G306R_YF]
result: 0.589

---

- Test system: c-Abl (mouse)
- EXPERIMENT_SUMMARY: phosphorylation enrichment, bacterial display (enrichment ratio); higher = better substrate or ligand; peptides without Tyr show the background
MEASURE_NAME: phosphorylation enrichment
I'd appreciate a reply containing only the number, no unit.

> print(dat)
                   ordered.residues  target.entity                measure.name  observed
1       DPHQQYFIAMD [TBX15_Y159_YF]  c-Abl (mouse)  phosphorylation enrichment     0.792
2  DFTEAYNSKIK [CLK1_Y305_P307S_YF]  c-Abl (mouse)  phosphorylation enrichment     0.795
3           FGLDRYQCDCT [PTGS1_Y54]  c-Abl (mouse)  phosphorylation enrichment     0.796
4      QEGPEYWDLET [HLA-A_Y83_Q86L]  c-Abl (mouse)  phosphorylation enrichment      1.56
5    ELTSVYGSRAR [SENP1_Y349_D350G]  c-Abl (mouse)  phosphorylation enrichment     0.567

query: Tell me phosphorylation enrichment of SDVSSYLEGQA [GCG_Y110] when tested on c-Abl (mouse).
result: 0.678

query: Tell me phosphorylation enrichment of YRKNIYNVKST [SYNE2_Y575] when tested on c-Abl (mouse).
result: 0.405

query: Tell me phosphorylation enrichment of MNPPPYSQLLS [FGF23_Y154_F157L] when tested on c-Abl (mouse).
result: 0.489

query: Tell me phosphorylation enrichment of HHTNEYEFDEL [TGM1_Y134_D132N_YF] when tested on c-Abl (mouse).
result: 0.624

query: Tell me phosphorylation enrichment of DFFDLYGGEKL [PTPN11_Y66_F71L_YF] when tested on c-Abl (mouse).
result: 1.02

query: Tell me phosphorylation enrichment of QNVADYMRYLM [RPL5_Y207] when tested on c-Abl (mouse).
result: 0.682

query: Tell me phosphorylation enrichment of TNIKRYHIAKG [HARS1_Y150_V155G] when tested on c-Abl (mouse).
result: 0.503

query: Tell me phosphorylation enrichment of YNDSTYNQQLI [ZPLD1_Y198] when tested on c-Abl (mouse).
result: 0.533

query: Tell me phosphorylation enrichment of PHMQTYEVDHN [SDHB_Y61_L65H] when tested on c-Abl (mouse).
result: 0.864

query: Tell me phosphorylation enrichment of KKHIPYRQHKS [CSNK1G2_Y206_E208Q] when tested on c-Abl (mouse).
result: 3.26

---

- TARGET_ENTITY: Fyn (UniProt P06241)
- Sequence (P06241 whole entry, looked up): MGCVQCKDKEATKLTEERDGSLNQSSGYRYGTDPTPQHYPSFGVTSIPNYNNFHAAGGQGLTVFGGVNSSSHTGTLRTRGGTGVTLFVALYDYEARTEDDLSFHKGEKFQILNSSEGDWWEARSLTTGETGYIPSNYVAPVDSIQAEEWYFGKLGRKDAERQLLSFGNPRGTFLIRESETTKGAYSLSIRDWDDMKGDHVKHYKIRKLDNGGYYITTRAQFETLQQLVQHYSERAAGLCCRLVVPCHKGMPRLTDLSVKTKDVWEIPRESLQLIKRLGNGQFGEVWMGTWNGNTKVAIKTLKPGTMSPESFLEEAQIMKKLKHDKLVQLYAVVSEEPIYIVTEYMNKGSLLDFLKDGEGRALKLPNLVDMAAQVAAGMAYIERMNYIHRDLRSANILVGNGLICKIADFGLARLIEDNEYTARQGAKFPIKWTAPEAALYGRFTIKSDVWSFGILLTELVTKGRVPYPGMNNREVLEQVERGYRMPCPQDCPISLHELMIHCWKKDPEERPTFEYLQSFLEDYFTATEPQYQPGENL
- EXPERIMENT_SUMMARY: phosphorylation enrichment, bacterial display (enrichment ratio); higher = better substrate or ligand; peptides without Tyr show the background
Classification field: rule met = phosphorylation enrichment at or over 0.6; rule not met = phosphorylation enrichment under 0.6.

> print(dat)
                  ordered.residues   label.class
1  EVDGLYREAPI [MYL12B_Y143_E141G]  rule not met
2       LKALKYKSMKI [ITGA11_Y1098]      rule met
3   QLDQHYLLVPE [DDX49_Y223_R222H]      rule met

query: Item PYTDPYYDYEI [ZC3H18_Y371_A368T] with phosphorylation enrichment of 0.6 or above?
result: rule met

---

- TARGET_ENTITY: EPHB1 (UniProt P54762)
- Sequence (P54762 whole entry, looked up): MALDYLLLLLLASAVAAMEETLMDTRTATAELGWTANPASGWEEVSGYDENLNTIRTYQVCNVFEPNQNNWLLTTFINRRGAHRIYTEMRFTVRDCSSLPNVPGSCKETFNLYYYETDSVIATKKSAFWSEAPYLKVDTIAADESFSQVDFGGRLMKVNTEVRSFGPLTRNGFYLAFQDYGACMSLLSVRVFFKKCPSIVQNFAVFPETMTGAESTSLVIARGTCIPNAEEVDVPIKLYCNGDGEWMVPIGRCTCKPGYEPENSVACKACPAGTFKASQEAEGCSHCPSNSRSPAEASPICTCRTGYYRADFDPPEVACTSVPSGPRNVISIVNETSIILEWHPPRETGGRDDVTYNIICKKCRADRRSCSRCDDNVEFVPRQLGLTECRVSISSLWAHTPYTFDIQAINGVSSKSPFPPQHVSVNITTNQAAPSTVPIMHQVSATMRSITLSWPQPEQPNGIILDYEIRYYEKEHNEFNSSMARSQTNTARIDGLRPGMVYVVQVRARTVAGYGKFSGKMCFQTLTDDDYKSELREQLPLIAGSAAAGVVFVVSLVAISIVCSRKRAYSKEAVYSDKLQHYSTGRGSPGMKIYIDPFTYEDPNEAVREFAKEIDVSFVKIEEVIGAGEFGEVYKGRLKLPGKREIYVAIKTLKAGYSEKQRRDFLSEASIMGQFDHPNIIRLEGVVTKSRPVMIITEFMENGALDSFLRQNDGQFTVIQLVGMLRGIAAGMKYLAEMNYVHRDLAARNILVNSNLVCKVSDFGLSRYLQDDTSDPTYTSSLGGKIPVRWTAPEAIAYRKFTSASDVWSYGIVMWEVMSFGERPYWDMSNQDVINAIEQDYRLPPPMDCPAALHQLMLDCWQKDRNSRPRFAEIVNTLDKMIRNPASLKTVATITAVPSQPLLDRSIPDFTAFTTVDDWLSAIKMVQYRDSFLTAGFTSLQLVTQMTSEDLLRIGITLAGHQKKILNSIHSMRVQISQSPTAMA
- EXPERIMENT_SUMMARY: phosphorylation enrichment, bacterial display (enrichment ratio); higher = better substrate or ligand; peptides without Tyr show the background
MEASURE_NAME: phosphorylation enrichment
I'd appreciate a reply containing only the number, no unit.

Use the examples below as a reference point.
> print(dat)
                    ordered.residues           target.entity  observed
1  QMEKICTQQIQ [CCNB1IP1_Y125_Y125C]  EPHB1 (UniProt P54762)     0.707
2       DVCKKYAEAKD [ALB_Y343_N342K]  EPHB1 (UniProt P54762)      0.72
3    TDIVAYSGWVQ [SPTBN2_Y477_R480W]  EPHB1 (UniProt P54762)     0.684
4       FITVGYVDDTQ [HLA-B_Y51_S48T]  EPHB1 (UniProt P54762)     0.681

query: Identify phosphorylation enrichment associated with the sequence ILTLKYLIEHG [ACTG1_Y69_P70L]
result: 0.689

---

Entries and their measured phosphorylation enrichment follow.
- TARGET_ENTITY: EPHB1 (UniProt P54762)
- EXPERIMENT_SUMMARY: phosphorylation enrichment, bacterial display (enrichment ratio); higher = better substrate or ligand; peptides without Tyr show the background
I'd appreciate a reply containing only the number, no unit.

Use the examples below as a reference point.
> print(dat)
                  ordered.residues  observed
1      LKGIRYLTSGL [PIGA_Y82_R77L]      1.12
2     HNGVSYFINLC [IGF2R_Y2024_YF]      1.17
3  TIQDAYMHITS [ADCY10_Y318_A313T]     0.479
4     MFNPFYGLFEF [NEDD4L_Y680_YF]     0.513

Could you now look at the following sequence, please?
query: Tell me phosphorylation enrichment of KRLFAYKMLMA [TMC2_Y209_Q205R_YF] when tested on EPHB1 (UniProt P54762).
result: 0.484

---

- TARGET_ENTITY: Hck (UniProt P08631)
- Sequence (P08631 whole entry, looked up): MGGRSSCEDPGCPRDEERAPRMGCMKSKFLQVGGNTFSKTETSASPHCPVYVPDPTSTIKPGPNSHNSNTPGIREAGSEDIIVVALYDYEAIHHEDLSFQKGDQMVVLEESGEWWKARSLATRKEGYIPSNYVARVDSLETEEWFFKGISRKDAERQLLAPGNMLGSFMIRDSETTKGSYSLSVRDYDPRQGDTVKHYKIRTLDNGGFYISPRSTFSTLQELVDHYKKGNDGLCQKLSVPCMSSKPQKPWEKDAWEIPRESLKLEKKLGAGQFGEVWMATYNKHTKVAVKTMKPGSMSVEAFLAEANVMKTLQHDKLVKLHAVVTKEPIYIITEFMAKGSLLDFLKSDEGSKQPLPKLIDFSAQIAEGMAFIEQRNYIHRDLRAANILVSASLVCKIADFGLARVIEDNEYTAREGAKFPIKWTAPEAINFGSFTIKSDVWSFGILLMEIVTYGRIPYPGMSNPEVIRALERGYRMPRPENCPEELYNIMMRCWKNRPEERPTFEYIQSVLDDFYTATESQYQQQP
- EXPERIMENT_SUMMARY: phosphorylation enrichment, bacterial display (enrichment ratio); higher = better substrate or ligand; peptides without Tyr show the background
MEASURE_NAME: phosphorylation enrichment
I'd appreciate a reply containing only the number, no unit.

> print(dat)
                     ordered.residues         target.entity  observed
1      TRGLEYIVPLM [CLCN4_Y548_G544R]  Hck (UniProt P08631)     0.493
2            EKIANYKEGTY [CLRN1_Y171]  Hck (UniProt P08631)     0.489
3          SEASFYKSLNL [NGEF_Y289_YF]  Hck (UniProt P08631)     0.488
4  NPSYNYEIVNQ [DYNC1H1_Y3379_R3384Q]  Hck (UniProt P08631)     0.497
5      NNHGNYIVHLG [ETFDH_Y172_R175H]  Hck (UniProt P08631)     0.511
6             KNKLNYTLPQD [NRAP_Y523]  Hck (UniProt P08631)     0.406
7             QNVADYMRYLM [RPL5_Y207]  Hck (UniProt P08631)     0.736
8         PTTKSYFPHFD [HBA1_Y43_T42S]  Hck (UniProt P08631)     0.752

Could you now look at the following sequence, please?
query: Identify phosphorylation enrichment associated with the sequence SKLTIYDGRPS [MTM1_Y277_A279G]
result: 1.44
